The measured values listed here are drawn from the supplement of paper PMC11061612.

Tested on: ALL-PO (B-Lymphoblastic Leukemia)
PROCEDURE DETAILS: combination Emax (second highest fraction inhibited in the dose matrix, 72 h); higher = more inhibition; extreme values may be limits of the assay
MEASURE NAME: combination Emax

The examples below pair each entry with its known result.
• NC1(C(=O)N[C@@H](CCO)c2ccc(Cl)cc2)CCN(c2ncnc3[nH]ccc23)CC1 [Capivasertib] + CC(=O)c1c(C)c2cnc(Nc3ccc(N4CCNCC4)cn3)nc2n(C2CCCC2)c1=O [Palbociclib] (first compound max 10 µM, 7x7, partner max 10 µM) = 0.688
• Cn1cnc2c(F)c(Nc3ccc(Br)cc3Cl)c(C(=O)NOCCO)cc21 [Selumetinib] + C[C@@H]1COCCN1C2=NC(=NC(=C2)C3(CC3)[S@](=N)(=O)C)C4=C5C=CNC5=NC=C4 [AZD6738] (first compound max 10 µM, 7x7, partner max 10 µM) = 0.96
• C=CCn1c(=O)c2cnc(Nc3ccc(N4CCN(C)CC4)cc3)nc2n1-c1cccc(C(C)(C)O)n1 [AZD1775] + C1CN(CCC1(C(=O)N[C@@H](CCO)C2=CC=C(C=C2)Cl)N)C3=NC=NC4=C3C=CN4 [Capivasertib] (first compound max 3 µM, partner max 3 µM) = 0.754
• COc1cccc(OCCCN)c1-c1cc(Nc2cnc(C#N)cn2)n[nH]1 [Prexasertib] + O=C(c1cc(Cc2n[nH]c(=O)c3ccccc23)ccc1F)N1CCN(C(=O)C2CC2)CC1 [Olaparib] (first compound max 1 µM, 7x7, partner max 10 µM) = 0.979

Provide combination Emax value for the following molecule: COc1cccc(OCCCN)c1-c1cc(Nc2cnc(C#N)cn2)n[nH]1 [Prexasertib] + Cc1cc2ncnn2cc1Nc1ncc2c(n1)n(C1CCOCC1)c(=O)n2C [AZD7648] (first compound max 1 µM, 7x7, partner max 10 µM)
0.993

###

Test system: SW1573 (Lung Adenocarcinoma)
PROCEDURE DETAILS: combination Emax (second highest fraction inhibited in the dose matrix, 72 h); higher = more inhibition; extreme values may be limits of the assay
Where combination Emax equals or exceeds 0.4, the correct label is true; where it does not, the label is false.

• CN(CCO)CC[C@H](CSc1ccccc1)Nc1ccc(S(=O)(=O)NC(=O)c2ccc(N3CCC([C@@H](O)c4ccccc4-c4ccc(Cl)cc4)CC3)cc2)cc1S(=O)(=O)C(F)(F)F [AZD4320] + C[C@@H]1COCCN1C2=NC(=NC(=C2)C3(CC3)[S@](=N)(=O)C)C4=C5C=CNC5=NC=C4 [AZD6738] (first compound max 1 µM, 7x7, partner max 10 µM) = true
• NC1(C(=O)N[C@@H](CCO)c2ccc(Cl)cc2)CCN(c2ncnc3[nH]ccc23)CC1 [Capivasertib] + CC(=O)c1c(C)c2cnc(Nc3ccc(N4CCNCC4)cn3)nc2n(C2CCCC2)c1=O [Palbociclib] (first compound max 10 µM, 7x7, partner max 10 µM) = false

We next turn to a different compound, shown below.
Kindly determine if combination Emax recorded for Cc1c2c(nn1C)CSCc1cc(n(C)n1)CSc1cc(c3ccccc3c1)OCCCc1c(C(=O)O)n(C)c3c-2c(Cl)ccc13 [AZD5991] + C=CCn1c(=O)c2cnc(Nc3ccc(N4CCN(C)CC4)cc3)nc2n1-c1cccc(C(C)(C)O)n1 [AZD1775] (first compound max 1 µM, partner max 1 µM) is above or exactly 0.4.
true
